Target: GST tagged Bcl w delta C29 protein (Homo sapiens, UniProt Q92843)
Test: Alphascreen competition with Bim26mer, GST detection system
Type: binding
Settings: competition with biotinylated Bim-BH3 peptide; 12-mers, Example 7; read-out: IC50 (nM) Bcl-w ΔC29
Metric name: IC50 (nM)
The reply should contain only the number, in nM.

Inquiry: So what IC50 did Ac-IAQELRRIGDEF-NH2 [Linear 12mer, reference compound] get with GST tagged Bcl w delta C29 protein (Homo sapiens, UniProt Q92843)?
Reply text: 4700

====

Target: GST tagged Bcl w delta C29 protein (Homo sapiens, UniProt Q92843)
Experiment: Alphascreen competition with Bim26mer, GST detection system
Assay type: binding
Details: Puma and Bmf peptides, Example 10; read-out: IC50 nM Bcl-w ΔC29
Each item that follows carries a reported IC50.

>  <Substance>
Ac-REIGAQLRRMADDLNA-NH2 [Puma]

>  <Assay system>
GST tagged Bcl w delta C29 protein (Homo sapiens, UniProt Q92843)

>  <IC50>
52 nM

$$$$

Inquiry: Any idea what IC50 was measured for Ac-VQIARKLQAIADQFHR-NH2 [Bmf] ?
Reply text: 0.25 nM

====

Target: GST tagged Bcl w delta C29 protein (Homo sapiens, UniProt Q92843)
Assay: Alphascreen competition with Bim26mer, GST detection system
Assay type: binding
Details: Bcl-w ΔC29, compared to the linear 16-mer

>  <Substance>
Ac-IWIAQELRRIGDEANA-NH2 [Peptide L]

>  <Assay system>
GST tagged Bcl w delta C29 protein (Homo sapiens, UniProt Q92843)

>  <decrease in binding affinity>
1,000 fold

$$$$
>  <Substance>
Ac-IWIAQELRRIGDEFNN-NH2 [Peptide U]

>  <Assay system>
GST tagged Bcl w delta C29 protein (Homo sapiens, UniProt Q92843)

>  <decrease in binding affinity>
two

$$$$
